System: influenza A H1N1 virus
EXPERIMENTAL_SETUP: 22,2 µM peptide, 48 hr post-treatment, A549
No end group written: not given here.
Reported values of Neuraminidase activity normalized to vehicle for individual entries

Here are 6 substances together with their reported answers.
| SUBSTANCE | EXPERIMENTAL_SYSTEM | RESULT |
| --- | --- | --- |
| RHIICHGGVI [CPEP133] | influenza A H1N1 virus | 0,4954 |
| LERVIFPSVKIATLV [CPEP53] | influenza A H1N1 virus | 1,0363 |
| EVVLFLLNVF [CPEP31] | influenza A H1N1 virus | 0,2851 |
| ARARALARGAGPANSV [CPEP47] | influenza A H1N1 virus | 1,1923 |
| GHRMAWDMMMNWSP [CPEP107] | influenza A H1N1 virus | 0,9099 |
| CPEP71: viral library peptide from HIV1 Integrase, targets IPO7 (WKGPAKLLWKG) | influenza A H1N1 virus | 1,0288 |

The reported Neuraminidase activity normalized to vehicle of the substance MAGRSGDSDEELIR [CPEP91] was 0,8658

The reported Neuraminidase activity normalized to vehicle of the substance PVQLSYYD [CPEP144] was 0,9081

The reported Neuraminidase activity normalized to vehicle of the substance CPEP142: peptide of the viral peptide library; sequence page not shown (LGIVCPICSQKP) was 0,9689

The reported Neuraminidase activity normalized to vehicle of the substance TGERDW [CPEP119] was 0,8371

The reported Neuraminidase activity normalized to vehicle of the substance CPEP61: peptide of the viral peptide library; sequence page not shown (KRRKSGAKRR) was 1,0577

The reported Neuraminidase activity normalized to vehicle of the substance DILDLWIYHTQGYFPDWQ [CPEP114] was 1,017

====

System: influenza A H1N1 virus
EXPERIMENTAL_SETUP: 22,2 µM peptide, 48 hr post-treatment, A549
PROPERTY: Neuraminidase activity normalized to vehicle

Here are 3 substances together with their reported answers.
| SUBSTANCE | RESULT |
| --- | --- |
| CPEP89: peptide of the viral peptide library; sequence page not shown (YDVLKAACKSVIKT) | 0,6685 |
| CPEP14: peptide of the viral peptide library; sequence page not shown (ILHTPGCVPCVR) | 1,0033 |
| CPEP153: peptide of the viral peptide library; sequence page not shown (GRKKRRQRRR) | 1,0832 |

The reported Neuraminidase activity normalized to vehicle of the substance GPSDSGAGRAAEDRKCL [CPEP137] was 1,189

====

Tested on: influenza A H1N1 virus
EXPERIMENTAL_SETUP: 22,2 µM peptide, 48 hr post-treatment, A549
PROPERTY: Neuraminidase activity normalized to vehicle

Record EALKKALRRHRFLWQRR [CPEP73] / influenza A H1N1 virus, Neuraminidase activity normalized to vehicle recorded as 1,1241

====

Reported values of Neuraminidase activity normalized to vehicle for individual entries
Test system: influenza A H1N1 virus
EXPERIMENTAL_SETUP: 0,823 µM peptide, 48 hr post-treatment, A549

Here are 5 substances together with their reported answers.
| SUBSTANCE | RESULT |
| --- | --- |
| TRVESENKVVILDSFD [CPEP93] | 1,1071 |
| RYSKRRHGRR [CPEP118] | 0,9639 |
| RRPSRPFRK [CPEP88] | 0,9984 |
| LGQGVSIEW [CPEP122] | 1,0256 |
| CPEP14: peptide of the viral peptide library; sequence page not shown (ILHTPGCVPCVR) | 0,9272 |

The reported Neuraminidase activity normalized to vehicle of the substance LGNIKGILGKKDKDG [CPEP51] was 0,8902

The reported Neuraminidase activity normalized to vehicle of the substance QILVESPTVLESGTKE [CPEP80] was 1,0444
